Listed below: HDAC6 activity raw data (signal) values for each entry.
biological target: HDAC6 (Homo sapiens); construct: purchased Reaction Biology Corporation (assay run by the CRO); experiment: HDAC6 inhibition, full IC50 measurement (Reaction Biology; fluorogenic p53 peptide RHKK(Ac)AMC); format: biochemical; details: Conc. 1.11E-06 M, t1
Sequence (Q9UBN7 whole entry): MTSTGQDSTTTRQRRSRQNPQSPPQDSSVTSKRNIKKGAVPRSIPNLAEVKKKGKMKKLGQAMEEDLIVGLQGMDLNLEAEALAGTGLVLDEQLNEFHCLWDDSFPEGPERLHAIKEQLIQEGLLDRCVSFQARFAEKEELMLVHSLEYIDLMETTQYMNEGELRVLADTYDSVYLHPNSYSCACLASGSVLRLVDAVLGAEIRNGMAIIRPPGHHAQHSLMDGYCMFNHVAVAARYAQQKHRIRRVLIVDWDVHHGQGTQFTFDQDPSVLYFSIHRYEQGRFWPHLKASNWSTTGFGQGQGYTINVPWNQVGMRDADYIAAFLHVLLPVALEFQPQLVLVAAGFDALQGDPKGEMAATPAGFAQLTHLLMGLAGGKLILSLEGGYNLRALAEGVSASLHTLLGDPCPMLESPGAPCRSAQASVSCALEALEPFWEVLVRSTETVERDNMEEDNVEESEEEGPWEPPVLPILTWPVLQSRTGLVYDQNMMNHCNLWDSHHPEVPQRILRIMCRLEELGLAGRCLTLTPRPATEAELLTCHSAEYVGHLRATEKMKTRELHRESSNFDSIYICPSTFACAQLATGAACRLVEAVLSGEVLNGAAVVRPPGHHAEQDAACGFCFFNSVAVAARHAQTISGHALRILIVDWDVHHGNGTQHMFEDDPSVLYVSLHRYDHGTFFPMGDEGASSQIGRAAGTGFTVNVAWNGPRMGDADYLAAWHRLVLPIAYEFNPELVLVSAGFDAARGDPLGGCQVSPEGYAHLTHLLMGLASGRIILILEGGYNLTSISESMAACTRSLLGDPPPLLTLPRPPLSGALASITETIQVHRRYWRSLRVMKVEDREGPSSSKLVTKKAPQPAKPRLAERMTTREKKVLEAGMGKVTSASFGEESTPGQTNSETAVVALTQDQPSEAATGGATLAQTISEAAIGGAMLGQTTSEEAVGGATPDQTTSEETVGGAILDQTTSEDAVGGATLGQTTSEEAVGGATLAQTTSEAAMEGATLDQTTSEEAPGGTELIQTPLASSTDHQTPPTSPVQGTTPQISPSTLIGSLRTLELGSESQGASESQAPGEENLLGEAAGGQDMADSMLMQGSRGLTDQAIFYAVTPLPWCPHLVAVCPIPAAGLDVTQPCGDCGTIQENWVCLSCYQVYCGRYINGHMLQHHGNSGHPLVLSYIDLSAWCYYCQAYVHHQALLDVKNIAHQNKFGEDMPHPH
Peptide text beside a SMILES is read from it.

{"columns": ["compound", "HDAC6 activity raw data (signal)"],
 "data": [
  ["N=C(N)NCCC[C@H]1NC(=O)[C@@H]2CCCN2C(=O)[C@H](CO)NC(=O)[C@@H](Cc2c[nH]cn2)NC(=O)[C@H](CCCCCS)NC(=O)[C@H](CCCCN)NC(=O)[C@H](Cc2ccc(O)cc2)NC(=O)[C@H]2CCCN2C(=O)[C@@H](CCC(N)=O)NC1=O [des3.1.0, SHA-dHis-Ser-Pro-dArg-dGln-dPro-Tyr-Lys] (HELM PEPTIDE1{K.[O=C([C@H](CCCCCS)N[*:1])[*:2]].[dH].S.P.[dR].[dQ].[dP].Y}$PEPTIDE1,PEPTIDE1,1:R1-9:R2$$$V2.0)", 76742],
  ["CCCC[C@H]1NC(=O)[C@H](Cc2ccccc2)NC(=O)[C@H](CCCCCS)NC(=O)[C@@H](CCCNC(=N)N)NC(=O)[C@H](C)NC(=O)[C@@H](CO)NC(=O)[C@@H](C)NC(=O)[C@H](CCCCN)NC1=O [des4.3.1.3, SHA-Phe-dNle-Lys-dAla-dSer-Ala-dArg] (HELM PEPTIDE1{A.[dR].[O=C([C@H](CCCCCS)N[*:1])[*:2]].F.[CCCC[C@@H](N[*:1])C(=O)[*:2]].K.[dA].[dS]}$PEPTIDE1,PEPTIDE1,1:R1-8:R2$$$V2.0)", 31133],
  ["N=C(N)NCCC[C@@H]1NC(=O)[C@H](Cc2c[nH]c3ccccc23)NC(=O)[C@H](CC(=O)O)NC(=O)[C@@H](CO)NC(=O)[C@H](Cc2c[nH]c3ccccc23)NC(=O)[C@H](CCCCCS)NC(=O)[C@H](CCC(N)=O)NC1=O [des4.1.0, SHA-Trp-dSer-Asp-Trp-Arg-Gln] (HELM PEPTIDE1{D.W.R.Q.[O=C([C@H](CCCCCS)N[*:1])[*:2]].W.[dS]}$PEPTIDE1,PEPTIDE1,1:R1-7:R2$$$V2.0)", 16871],
  ["NCCCC[C@@H]1NC(=O)[C@@H]2C[C@@H](O)CN2C(=O)[C@H](CC(N)=O)NC(=O)[C@H](CCCCCS)NC(=O)CNC(=O)[C@H](Cc2c[nH]c3ccccc23)NC(=O)[C@@H](CCCCN)NC(=O)[C@H](CCC(N)=O)NC1=O [des1.1.2, SHA-Asn-Hpr-Lys-Gln-dLys-Trp-Gly] (HELM PEPTIDE1{G.[O=C([C@H](CCCCCS)N[*:1])[*:2]].N.[Hyp].K.Q.[dK].W}$PEPTIDE1,PEPTIDE1,1:R1-8:R2$$$V2.0)", 35009],
  ["CSCC[C@H]1NC(=O)[C@@H](CO)NC(=O)[C@H](CC(N)=O)NC(=O)[C@H](CC(=O)O)NC(=O)[C@@H]([C@H](C)O)NC(=O)[C@H](Cc2c[nH]c3ccccc23)NC(=O)[C@H](CCCCCS)NC(=O)[C@H](CCCCN)NC(=O)[C@@H](CC(=O)O)NC1=O [des2.1.1, SHA-Trp-dThr-Asp-Asn-dSer-dMet-dAsp-Lys] (HELM PEPTIDE1{D.N.[dS].[dM].[dD].K.[O=C([C@H](CCCCCS)N[*:1])[*:2]].W.[dT]}$PEPTIDE1,PEPTIDE1,1:R1-9:R2$$$V2.0)", 12750]
]}
